Provenance of the data: the DeepSol protein solubility set

# test.protocol: soluble on expression in E. coli; label from the status in PepcDB or PDB records
measured.property: soluble on expression in E. coli

MGSDKIHHHHHHMLRYHMQGFSGYGVQYSPFFDNRLAVAAGSNFGLVGNGKLFILEIDRSGRIVEVNSFLTQDCLFDLAWNESHENQVLVAQGDGTLRLFDTTFKEFPIAIFKEHEREVFSCNWNLVNRQNFLSSSWDGSIKIWSPLRKQSLMTLTPRPLEITKMVDPLNAIILKKKSFTGISKNRNCVYQAQFSPHDQNLVLSCSGNSYASLFDIRLPSGKNQNNFLVHSGLEALTCDFNKYRPYVVATGGVDNAIRIWDIRMLNKNESATIKRTVPGQLHNSSCINEIPNAHGLAIRKVTWSPHHSNILMSASYDMTCRIWRDLSNDGAKETYKTNSTDATKGSIFNFTQHSEFVFGADWSLWGKPGYVASTAWDGNLFVWNGLG = not soluble
MGQNDLVKTLRMNYLFDFYQSLLTNKQRNYLELFYLEDYSLSEIADTFNVSRQAVYDNIRRTGDLVEDYEKKLELYQKFEQRREIYDEMKQHLSNPEQIQRYIQQLEDLE = not soluble
MAMMAKHQAVKKIFDQIATKYDLIDTIISLGLDQHWRRVLVSSLGLREGMRCLDCGAGSGKVTELIYFRCGGCDVTALDITDSMFNPELKKYVKFVVSPAESLPFPDASFDRVSSAFLTRNLADIDRYFAEVYRVLRPGGVFVNMDIYNPTRPVISEFFSLYFYRFVPFFGNRATGSKNYTYLANTVKYFHRPSVISQKLADRGFSVEATDLFFGAVYLHRSVKPEGRGLEHHHHHH = not soluble
